tested on: K4 kissing-loop RNA reporter; assay: apparent KD of K4 kissing-loop reporter; higher = weaker reporter binding; settings: Eterna round: R107; input ligand: theophylline 20 uM;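 further: bound reporter read as fluorescence of individual clusters on recovered sequencing chips by microscopy, with normalized cluster intensities fitted with a binding model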
Some sequences, each annotated with its measured apparent KD of K4 kissing-loop reporter.
Give the quantity in nM, number only.

SEQUENCE DATA	QUANTITY NAME	NUMBER
AAUUCAGUGAUGUUGGAAGGCAGGCGGGAUACCAGCGGAGAAUAACGCCCUUGGCAGCCCAUAUAUCCCAAAUAGAUAAUAGUUC [Same State - Theophylline A (Freestyle 3)]	apparent KD of K4 kissing-loop reporter	405
ACCGCAUUGGGCUGAUCCCAAUGCGCUGGUCGAGGACCGGUACGGCCGCCACUCGUCCAGUGAUGUUGGACUAGGGCAACUGAAG [Veraceer]	apparent KD of K4 kissing-loop reporter	449

Problem: Report apparent KD of K4 kissing-loop reporter for GUGGUACAGGCGGCCGCCACUAGUGAUGUUAGUGAUAGAAGAUAUAGUAAAUAUCGGCAUUUAGAUAGGACCGGGCCUGGUGGUG [xxfxcmullin]
Result: 309
